Origin of measurements: patent US20200247894A1

I'd appreciate it if you could supply Binding Ratio (Sample over unstained MFIs) values for the items below.
# target.under.test: T1, human IL-2Rγ endogenously expressed on NK-92 and Jurkat cells (human, UniProt P31785 23-369)
# T1 construct: whole, on cells; on cells it stands with the other receptor subunits of the cell line; also called IL-2Rg; CD132
# T1 sequence (looked up): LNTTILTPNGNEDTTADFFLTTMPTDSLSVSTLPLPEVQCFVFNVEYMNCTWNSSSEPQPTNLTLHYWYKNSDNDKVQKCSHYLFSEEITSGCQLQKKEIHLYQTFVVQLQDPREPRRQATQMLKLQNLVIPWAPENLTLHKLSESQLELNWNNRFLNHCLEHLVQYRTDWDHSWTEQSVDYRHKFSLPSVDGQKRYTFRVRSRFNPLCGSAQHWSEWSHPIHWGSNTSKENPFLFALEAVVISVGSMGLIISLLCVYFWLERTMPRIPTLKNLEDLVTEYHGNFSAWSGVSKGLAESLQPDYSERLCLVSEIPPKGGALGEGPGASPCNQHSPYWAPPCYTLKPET
# method.notes: flow cytometry, 10 ug/ml antibody, Jurkat cells (endogenous human IL-2Rg)

What value of Binding Ratio (Sample over unstained MFIs) has been recorded for this entry: H4H12871P (antibody, human IgG4 S228P, kappa, V domains shown, fully human anti-IL2Rg antibody, human IgG4; also called REGN9434) VH: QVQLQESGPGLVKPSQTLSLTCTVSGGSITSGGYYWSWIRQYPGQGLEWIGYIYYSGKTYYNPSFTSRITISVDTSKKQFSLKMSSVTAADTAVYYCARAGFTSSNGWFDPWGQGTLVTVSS VL: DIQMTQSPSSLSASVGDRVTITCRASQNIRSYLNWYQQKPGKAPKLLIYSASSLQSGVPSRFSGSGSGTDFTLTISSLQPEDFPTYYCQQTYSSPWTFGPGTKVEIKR
18

Further, for H4H12884P (antibody, human IgG4 S228P, kappa, V domains shown, fully human anti-IL2Rg antibody, human IgG4) VH: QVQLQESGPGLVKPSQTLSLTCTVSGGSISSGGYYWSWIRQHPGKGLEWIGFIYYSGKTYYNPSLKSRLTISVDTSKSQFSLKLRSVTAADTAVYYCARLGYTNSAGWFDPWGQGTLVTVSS VL: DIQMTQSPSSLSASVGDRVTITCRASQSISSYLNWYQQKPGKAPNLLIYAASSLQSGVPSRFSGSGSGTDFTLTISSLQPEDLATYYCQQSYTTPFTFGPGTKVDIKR ?
16

Further, for H4H12889P (antibody, human IgG4 S228P, kappa, V domains shown, fully human anti-IL2Rg antibody, human IgG4; also called REGN7257) VH: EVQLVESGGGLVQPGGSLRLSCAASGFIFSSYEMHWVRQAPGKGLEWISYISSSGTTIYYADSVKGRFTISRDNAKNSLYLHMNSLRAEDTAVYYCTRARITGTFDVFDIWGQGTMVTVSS VL: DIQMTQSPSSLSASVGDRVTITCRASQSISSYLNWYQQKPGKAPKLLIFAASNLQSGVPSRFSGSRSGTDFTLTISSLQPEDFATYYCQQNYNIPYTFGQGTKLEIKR ?
19

Further, for H4H12886P (antibody, human IgG4 S228P, kappa, V domains shown, fully human anti-IL2Rg antibody, human IgG4) VH: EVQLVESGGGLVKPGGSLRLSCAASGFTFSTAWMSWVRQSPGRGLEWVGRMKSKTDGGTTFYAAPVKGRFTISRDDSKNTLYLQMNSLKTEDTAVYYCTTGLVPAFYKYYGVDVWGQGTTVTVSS VL: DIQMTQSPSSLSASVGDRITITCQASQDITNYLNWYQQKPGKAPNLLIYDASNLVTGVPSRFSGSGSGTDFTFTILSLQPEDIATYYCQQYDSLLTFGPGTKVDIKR ?
6

Further, for H4H12890P (antibody, human IgG4 S228P, kappa, V domains shown, fully human anti-IL2Rg antibody, human IgG4) VH: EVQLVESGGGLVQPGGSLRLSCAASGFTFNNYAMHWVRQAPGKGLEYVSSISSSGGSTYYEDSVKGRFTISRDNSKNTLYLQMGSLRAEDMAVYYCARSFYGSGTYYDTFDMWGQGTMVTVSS VL: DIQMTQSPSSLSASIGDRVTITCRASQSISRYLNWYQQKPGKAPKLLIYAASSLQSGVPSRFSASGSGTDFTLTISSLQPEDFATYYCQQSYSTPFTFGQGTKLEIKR ?
6
